I'd appreciate it if you could supply fluorescence slope values for the items below.
target: Muscarinic acetylcholine receptor M4 (Homo sapiens); assay: compounds altering M4/GIRK thallium flux, either direction, primary screen, M4 allosteric agonist project, cell-based, HEK293 M4/GIRK, BTC-AM (AID 625); details: at 10 µM, actives lie on both sides;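 note: thallium influx through GIRK channels coupled to M4 in HEK293 cells with BTC-AM dye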
Answers are plain numbers.

{"columns": ["COMPOUND", "fluorescence slope"],
 "data": [
  ["CC(C)COC(=O)CCNc1n[nH]c(=O)[nH]c1=O", 0.00627],
  ["Cc1cccc(-c2nnc3n2N=C(c2ccc(Br)cc2)CS3)c1", 0.006],
  ["COC(=O)Sc1nc(N2CCOCC2)c2c(c1C#N)CC(C)(C)OC2", 0.00476]
]}

I have 8 compounds here; please give me fluorescence slope for each one.
1. CCOC(=O)C1=C(N)n2c(s/c(=C\c3ccco3)c2=O)=C(C(=O)OC(C)C)C1c1ccco1 (stereo unspecified)
2. C=CCN(C(=O)CCC(=O)O)C1CC(=O)N(c2ccc(OC)cc2)C1=O (stereo unspecified)
3. Cc1cc(Nc2ccc3ccccc3c2)n2ncnc2n1
4. O=C1c2ccccc2-c2onc3ccc(NCc4ccco4)c1c23
5. CCN(CC)C(=O)C1CCN(c2ncnc3c2cnn3-c2ccc(C)cc2C)CC1
6. COc1ccc(-c2nc3c(Br)c(N)c(Br)cc3o2)cc1
7. CC1CCN(c2[nH]c(=S)c(C#N)c3c2CCCC3)CC1
8. Cc1ccc(-n2ncc3c(NCCCOC(C)C)ncnc32)c(C)c1

stdout:
1. 0.00444
2. 0.005
3. 0.00533
4. 0.000102
5. 0.00727
6. 0.0064
7. 0.00501
8. 0.00603

I have 4 compounds here; please give me fluorescence slope for each one.
1. C=CCNc1nc(NCc2ccccc2)c(C#N)c2c1CN(C)CC2
2. CCC(NC(=O)Nc1nccs1)(C(F)(F)F)C(F)(F)F
3. CC1(C)CCN(Cc2ccccc2)C1CC#N (stereo unspecified)
4. CCCCSc1nnc2n(CCc3ccccc3)c(=O)c3c4c(sc3n12)COC(C)(C)C4

stdout:
1: 0.00402; 2: 0.0066; 3: 0.00545; 4: 0.00807

I have 8 compounds here; please give me fluorescence slope for each one.
1. COc1cccc(Cn2c(NCc3ccco3)nc3c2c(=O)n(C)c(=O)n3C)c1
2. COc1ccc(-n2ncc3c(Nc4cccc(C)c4)ncnc32)cc1
3. COc1cccc(C2CC(c3ccccc3Cl)n3nc(N)nc3N2)c1 (stereo unspecified)
4. O=C(O)C1[C@H]2C(=O)N(Cc3cccs3)C[C@]23C=C[C@H]1O3 (stereo partly specified)
5. COC(=O)CCc1c(C)[nH]c(=S)[nH]c1=O
6. CCN(CC)CCCN1C(=O)C(=O)/C(=C(/O)c2ccccc2)C1c1cc(OC)ccc1OC (stereo unspecified)
7. CCN(CC)CCOC(=O)c1c(C)n(C)c2ccc(OC)cc12
8. COCCCNC(=O)c1c(N)n(/N=C/c2ccccn2)c2nc3ccccc3nc12

stdout:
1: 0.00767; 2: 0.00486; 3: 0.00588; 4: 0.00643; 5: 0.00625; 6: 0.00498; 7: 0.00645; 8: 0.00553

I have 4 compounds here; please give me fluorescence slope for each one.
1. O=S(=O)(c1ccccc1)N(CC(O)CN1CCCCC1)c1ccccc1 (stereo unspecified)
2. Cc1c(C)[n+](=O)c2c(n1[O-])CCC2
3. O=C(c1ccccc1)c1cc(-c2ccccc2)on1
4. COc1ccc(C2C(C#N)=C(N)Oc3cc(C)n(CCN4CCOCC4)c(=O)c32)cc1OC (stereo unspecified)

stdout:
[0.00483, 0.00544, 0.00548, 0.00521]

I have 3 compounds here; please give me fluorescence slope for each one.
1. O=C(NCCN1CCCCC1)/C(=N\O)c1ccccc1
2. CCOC(=O)c1[nH]c2cc3c(cc2c1NC(=O)CN1CC(C)CC(C)C1)OCO3 (stereo unspecified)
3. COc1cccc(C=NCCNC(=O)c2nonc2N)c1O

stdout:
[0.00408, 0.00584, 0.00584]

I have 5 compounds here; please give me fluorescence slope for each one.
1. CN1CCc2c(C#N)c(N3CCCCC3)nc(NCc3ccccc3)c2C1
2. Cc1ccc(N2C(=O)c3sc4nnc(C)c(=O)n4c3C2=O)cc1
3. CC(=O)/C(C#N)=C1\NC(=O)C(Cc2ccccc2Cl)S1 (stereo unspecified)
4. CC(=O)/C=C(\C)NCCNc1c(F)c(F)c(CO)c(F)c1F
5. COc1ccc(C2C(C#N)=C(C)NC3=C2C(=O)c2ccccc23)cc1 (stereo unspecified)

stdout:
1. 0.00359
2. 0.00581
3. 0.00568
4. 0.00522
5. 0.00419

I have 8 compounds here; please give me fluorescence slope for each one.
1. CCCCSc1nc(O)c(C2OC(=O)c3c2ccc(OC)c3OC)c(=O)n1C (stereo unspecified)
2. COC(=O)C(NC(=O)c1ccc(F)cc1)(Nc1nc(C)cs1)C(F)(F)F (stereo unspecified)
3. CCC(C)Nc1nc(OC)nc(N(C)C#N)n1 (stereo unspecified)
4. FC(F)(F)c1cccc(N2CCc3cn[nH]c32)c1
5. CC1(C)Cc2c(sc3nc(SCC(=O)NCc4ccco4)n(-c4ccccc4)c(=O)c23)CS1
6. CCSc1nnc(NC(NC(=O)c2ccco2)(C(F)(F)F)C(F)(F)F)s1
7. CCOC(=O)c1c(N)sc(=S)c2c1CCC2
8. N#Cc1c(NCCN)nc(NCc2ccccc2)c2c1CCN(Cc1ccccc1)C2

stdout:
1: 0.00535; 2: 0.00339; 3: 0.00571; 4: 0.00449; 5: 0.00628; 6: 0.00455; 7: 0.00293; 8: 0.00448

I have 3 compounds here; please give me fluorescence slope for each one.
1. COC(=O)c1c(-n2cnnn2)sc(C)c1C
2. COC(=O)CC(=O)Cc1nc(N)nc(Nc2ccc(C)c(C)c2)n1
3. O=C1C=C(O)CC(c2ccc(Cl)c(Cl)c2)C1 (stereo unspecified)

stdout:
0.00518
0.00526
0.00481

----------
experiment: inhibitors of mutant huntingtin aggregation, primary screen, imaging, exon1htt(103Q)mCFP cells, high-content imaging (AID 483); conditions: exon1htt(103Q)mCFP cell line, aggregate imaging, at 2 µM; stronger effect = higher value;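 note: compound exposure lasted 3 days before fixation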
Activity calls are given as the source filed them.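 How the source made its calls: active means visual image review flags a hit and inhibition of aggregation exceeds 20%; inconclusive means visual hit but inhibition at or below 20%; inactive means no hit on visual image review.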
I'd appreciate it if you could supply inhibition of aggregation values for the items below.

{"columns": ["MOLECULE", "OBS VALUE"],
 "data": [
  ["CCOCCOc1nc2c(c(=O)n(C)c(=O)n2C)n1Cc1ccc(C)cc1", "-33.5% (inactive)"]
]}

I have 5 molecules here; please give me inhibition of aggregation for each one.
1. CN(C)c1cccc2c(S(=O)(=O)Nc3ccccn3)cccc12
2. COc1ccc2c(c1)C(=O)N(c1ccccc1OC)C(=O)C2
3. CCOc1ccc(NC(=O)C(C)Sc2nnc(C)n2C)cc1 (stereo unspecified)
4. Cc1ccc(NC2=NCC(=O)N2c2ccc3c(c2)OCCO3)c(C)c1
5. O=C(CN1C(=O)c2ccccc2S1(=O)=O)NCc1ccccn1

stdout:
1: 11.7% (inactive); 2: -3.2% (inactive); 3: 19.3% (inactive); 4: -2.6% (inactive); 5: -6.2% (inactive)

----------
I'd appreciate it if you could supply nuclei count values for the items below.
experiment: inhibitors of E-selectin induction by TNFa, primary screen, imaging, HUVEC, immunofluorescence, MLSMR starter and 10KST1 sets (AID 487); details: HUVEC TNFalpha-induced E-selectin immunofluorescence imaging, at 2 µM; measured here: cell number, toxicity;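 note: 100% = median nuclei count of all wells on the same plate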
Numbers only, in %.

Recorded results for 4 molecules are shown here.
{"columns": ["MOLECULE", "RECORDED METRIC", "MEASUREMENT UNIT", "OBS VALUE"],
 "data": [
  ["COc1ccc(-c2[nH]nc3c2C(c2ccncc2)C(C#N)=C(N)O3)cc1 (stereo not drawn)", "nuclei count", "%", 100],
  ["Cc1ccc(CCNC(=O)C2CCC(=O)N2C2CCCC2)cc1 (stereo not drawn)", "nuclei count", "%", 97.7],
  ["COc1ccc(C2CC(c3cccs3)n3nc(N)nc3N2)cc1 (stereo not drawn)", "nuclei count", "%", 118],
  ["COC(=O)c1sc(S(=O)(=O)NCc2cccs2)c(C(=O)OC)c1C", "nuclei count", "%", 101]
]}

I have 8 molecules here; please give me nuclei count for each one.
1. CCn1c(SCC(=O)NC2CCCCC2C)nnc1-c1ccc(OC)cc1 (stereo not drawn)
2. CN(C1CCCCC1)S(=O)(=O)c1ccc(S(=O)(=O)N2CCN(CCC#N)CC2)cc1
3. Cn1cnc(S(=O)(=O)NCc2cccs2)c1
4. O=C(Cc1ccccc1)Nc1cccc(-c2nnc(-c3ccco3)o2)c1
5. CCCN(CCC)CCNC(=O)c1cc2c(=O)n(C)c3ccccc3c2n1C
6. CC(C)c1nnc(NC(=O)c2ccc(N3C(=O)CCC3=O)cc2)s1
7. C=CCN1C(=O)C2(/C(=C(\O)c3ccc4c(c3)OCCO4)C(=O)C(=O)N2CCCOC)c2ccccc21 (stereo not drawn)
8. Cc1ccc(C2/C(=C(\O)c3ccc4c(c3)OCCO4)C(=O)C(=O)N2CCCN(C)C)o1 (stereo not drawn)

stdout:
149
107
132
188
112
119
128
113
